Hello, the source for this data is patent US12281162, in case you need it.

target: T1, human G-protein-coupled receptor family C group 5 member D (GPRC5D) (human, UniProt Q9NZD1 1-345); experiment: FACS, CHO-K1/human GPRC5D, hybridoma supernatant
T1 construct: whole, on cells; also called human GPRC5D protein
T1 sequence (Q9NZD1 whole entry): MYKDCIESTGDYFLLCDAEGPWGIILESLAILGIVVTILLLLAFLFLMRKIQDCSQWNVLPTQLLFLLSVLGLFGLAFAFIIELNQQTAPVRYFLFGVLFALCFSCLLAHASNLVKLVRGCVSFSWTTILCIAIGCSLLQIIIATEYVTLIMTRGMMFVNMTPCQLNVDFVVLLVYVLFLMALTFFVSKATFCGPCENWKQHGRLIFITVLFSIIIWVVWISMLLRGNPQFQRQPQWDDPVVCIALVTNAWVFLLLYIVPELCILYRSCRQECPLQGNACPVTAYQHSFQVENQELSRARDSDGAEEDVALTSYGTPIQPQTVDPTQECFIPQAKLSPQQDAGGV

binder	Span
2D3C12 (antibody, V domains shown, murine antibody from hybridoma supernatant) VH: QVQLQQSGAELVRPGTSVKVSCKASGYAFINYLIEWIKQRPGQGLEWIGMINPGSGGTNYNEKFKDKATLTADKSSSTAYMQLSSLTSDDSAVYFCARNWDVWGQGTTLTVSS VL: DVVMTQSPLSLPVSLGDQASVSCRSSQSLVHSTGNTYLHWYLQKPGQSPKLLIYKVSNRFSGVPDRFSGSGSGTDFTLKISRVEAEDLGVYFCSQSTHVPWTFGGGTKLEIK	789000
34D4A10 (antibody, V domains shown, murine antibody from hybridoma supernatant) VH: QVQLQQSGAELVRPGTSVKVSCKASGYAFISYLIEWIKQRPGQGLEWIGMINPGSGGTNYNEKFKDKATLTADKSSSTAYMQLSSLTSDDSAVYFCARNWDVWGQGTTLTVSS VL: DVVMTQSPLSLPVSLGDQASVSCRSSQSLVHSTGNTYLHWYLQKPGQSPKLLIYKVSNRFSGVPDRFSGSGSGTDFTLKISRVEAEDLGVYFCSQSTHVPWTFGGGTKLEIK	919000
40A5B2 (antibody, V domains shown, murine antibody from hybridoma supernatant) VH: EVQLQQSGPELVKPGASVKMSCKASGYTFTRNIMHWVKQKPGQGLEWIGYINPYNAGSKYNEKFKGKATLTSDISSSTAYMELSSLTSEDSAVYYCAREEVYYRYGAWFAYWGHGTLVTVSA VL: DIVLTQSPASLAVSLGQRATISCRASQSVSTSSYSYMHWYQQKPGQPPKLLIKYASNLESGVPARFSGSGSGTDFTLNIHPVEEEDTATYYCQHSWEIPRTFGGGTKLEIK	1.17e+06
37B9C4 (antibody, V domains shown, murine antibody from hybridoma supernatant) VH: EVNLEESGGGLVQPGGSMKLSCVASGFTFSDYWMNWVRQSPEKGLEWVAEIRLKSNNYATHYAESVKGRFTISRDDSKSSVYLQMNNLRAEDTGIYYCTRPLLWFRRYYAMDYWGQGTSVTVSS VL: DIQMTQTTSSLSASLGDRITISCSASQGISNYLNWYQQKPDGTVKLLIYYTSSLHSGVPSRFSGSGSGTDYSLTISNLEPADIATYYCQQYSKLPFTFGSGTKLEIK	1.75e+06
58F9G10 (antibody, V domains shown, murine antibody from hybridoma supernatant) VH: EVQLQQSGPELVKTGASVKISCKASGYSFTGYYIHWVKQSHGKSLEWIGYISCYNGATSFNQKFKGKATFTVDTSSSTAYMQFNSLTSEDSAVYYCARTELRGPWFAYWGQGTLVTVSA VL: QTVLTQSPAIMSASPGEKVTMTCSASSSVSYMNWYQQKSGTSPKRWIYDTSKLASGVPARFSGSGSGTSYSLTISSMEAEDAATYYCQQWSNNPLTFGAGTKLELK	2.07e+06
38A10E9A11 (antibody, V domains shown, murine antibody from hybridoma supernatant) VH: QVQLQQSGAELARPGASVKMSCKASGYTFTTYTMHWVKQRPGQGLEWIGYINPSSGYTNYNQKFKDKATLTAGKSSSTAYMQLSSLTSEDSAVYYCASLRSRGYFDYWGRGTTLTVSS VL: DIVMTQSQKFLSTSVGDRVSITCKASQNVGTAVAWYQQKPGQSPKLLIYSASNRYTGVPDRFTGSGSGTDFTLTISNMQSEDLAGYFCQQYSSYPYTFGGGTKLEIK	1.76e+06
21C3C11B3 (antibody, V domains shown, murine antibody from hybridoma supernatant) VH: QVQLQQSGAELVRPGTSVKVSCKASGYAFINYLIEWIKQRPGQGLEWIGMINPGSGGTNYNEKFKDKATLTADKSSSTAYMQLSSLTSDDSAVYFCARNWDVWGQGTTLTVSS VL: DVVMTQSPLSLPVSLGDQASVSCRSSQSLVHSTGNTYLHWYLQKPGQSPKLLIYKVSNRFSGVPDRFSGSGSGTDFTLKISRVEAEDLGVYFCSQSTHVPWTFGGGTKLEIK	1.45e+06
34D3H1 (antibody, V domains shown, murine antibody from hybridoma supernatant) VH: EVHLVESGGDLVKPGGSLKLSCAASGFTFSSYGMSWVRQTPDKRLEWVATISSGGSYTYYPDSVKGRFTISRDNAKNTLNLQMSSLKSEDTAMYYCARQGGDAMDYWGQGTSVTVSS VL: DIVLTQSPATLSVTPGDSVSLSCRASQSINNNLHWYQQKSHESPRLLIKYASQSISGIPSRFSGSGSGTDFTLSINSVETEDFGMYFCQQSNSRLTFGAGTKLELK	1.43e+06
6G10D9 (antibody, V domains shown, murine antibody from hybridoma supernatant) VH: QVQLQQSGAELARPGASVKMSCKASGYTFTTYTMHWVKQRPGQGLEWLGYINPSSGYTNYNQKFKDKATLTAGKSSSTAYMQLSSLTSEDSAVYYCASLRSRGYFDYWGQGTTLTVSS VL: DIVMTQSQTFMSTSVGDRVRITCKASQNVGTAVVWYQQKTGQSPRLLIYSASNRYTGVPDRFTGSGSGTDFTLTISNMQSEDLADFFCQQYSSYPYTFGGGTKLEIK	1.42e+06
29A7H11H4C12 (antibody, V domains shown, murine antibody from hybridoma supernatant) VH: EVQLQQSGPELVKPGASMKISCKASGYSFTGYTMHWVKQSHGENLEWIGLINPYNGGTNYNQKFKGKATLTVDKSSSTAYMELLSLTSEDSAVYYCSRWGLRRAMDYWGQGTSVTVSS VL: DIVMTQSQKFMSTSIGDRVSVTCKASQNVGSNVAWYQQKPGQSPKALIYSASYRYSGVPDRFTGNGSGTDFTLTISNVQSEDLAEYFCQQYYNSPWTFGGGTKLEIK	1.42e+06
29B2C10 (antibody, V domains shown, murine antibody from hybridoma supernatant) VH: EVQLQQSGPELVKPGASMKLSCKASGYSFTGYTMHWVKQSHGENLEWIGLINPYNGGTNYNQKFKGKATLTVDKSSSTAYMELLSLTSEDSAVYYCSRWGLRRAMDYWGQGTSVTVSS VL: DIVMTQSQKFMSTSVGDRVSVTCKASQNVGSNVAWYQQKPGQSPKALIYSASYRYSGVPDRFTGNGSGTDFTLTISNVQSEDLAEYFCQQYYNSPWTFGGGTKLEIK	1.54e+06
